Experiment: Stability of analytes in rat plasma (QC samples under four storage conditions)
Type: in vitro ADME
Details: spiked concentration 5 ng/mL, n = 6
readoutKind: Measured concentration, Three freeze-thaw cycles (ng/mL)

INSERT INTO assay_data (compound, readoutunits, valueobserved) VALUES
  ('COc1ccc(-c2cc(=O)c3c(O)cc(O)cc3o2)cc1 [Acacetin]', 'ng/mL', 5.8),
  ('O=c1cc(-c2ccc(O)cc2)oc2cc(O)cc(O)c12 [Apigenin]', 'ng/mL', 5.7),
  ('O=C(/C=C/c1ccc(O)c(O)c1)O[C@@H]1C[C@](O)(C(=O)O)C[C@@H](O)[C@H]1O [Chlorogenic acid]', 'ng/mL', 5.8),
  ('O=C(/C=C/c1ccc(O)c(O)c1)O[C@H]1[C@H](O)C[C@](O)(C(=O)O)C[C@H]1O [Cryptochlorogenic acid]', 'ng/mL', 5.9),
  ('O=c1c(O[C@@H]2O[C@H](CO)[C@H](O)[C@H](O)[C@H]2O)c(-c2ccc(O)c(O)c2)oc2cc(O)cc(O)c12 [Hyperoside]', 'ng/mL', 5.7),
  ('O=C(/C=C/c1ccc(O)c(O)c1)O[C@@H]1[C@H](O)C[C@@](O)(C(=O)O)C[C@H]1OC(=O)/C=C/c1ccc(O)c(O)c1 [Isochlorogenic acid C]', 'ng/mL', 5.9),
  ('O=c1cc(-c2ccc(O)cc2)oc2cc(O[C@@H]3O[C@H](CO)[C@@H](O)[C@H](O)[C@H]3O)cc(O)c12 [Apigenin 7-glucoside]', 'ng/mL', 5.6);

* * *

Assay: Stability of analytes in rat plasma (QC samples under four storage conditions)
Assay type: in vitro ADME
Settings: spiked concentration 200 ng/mL, n = 6
readoutKind: Measured concentration, -80°C for 14 days (ng/mL)

INSERT INTO measurements (compound, valueobserved) VALUES
  ('COc1ccc(-c2cc(=O)c3c(O)cc(O[C@@H]4O[C@H](CO)[C@@H](O)[C@H](O)[C@H]4O)cc3o2)cc1', 188.6),
  ('O=c1cc(-c2ccc(O)c(O)c2)oc2cc(O[C@@H]3O[C@H](CO)[C@@H](O)[C@H](O)[C@H]3O)cc(O)c12 [Cynaroside]', 205.0),
  ('O=c1cc(-c2ccc(O)c(O)c2)oc2cc(O)cc(O)c12', 195.1),
  ('COc1ccc([C@@H]2CC(=O)c3c(O)cc(O[C@@H]4O[C@H](CO[C@@H]5O[C@@H](C)[C@H](O)[C@@H](O)[C@H]5O)[C@@H](O)[C@H](O)[C@H]4O)cc3O2)cc1O', 209.5);

* * *

Experiment: Stability of analytes in rat plasma (QC samples under four storage conditions)
Type: in vitro ADME
Settings: spiked concentration 5 ng/mL, n = 6
Experimental: To study the stability of all compounds in rat plasma, low, medium, and high concentrations of QC samples were tested under the following test conditions: stored at an autosampler for 12 hours, stored at room temperature for 6 hours, put through three freeze/thaw cycles, and stored at -80°C for 14 days. […] The stability of all 13 analytes during sample collection and processing was evaluated with the various storage conditions being tested on spiked plasma samples at three QC concentrations.
readoutKind: Measured concentration, -80°C for 14 days (ng/mL)

INSERT INTO results (compound, valueobserved) VALUES
  ('O=c1cc(-c2ccc(O)cc2)oc2cc(O)cc(O)c12 [Apigenin]', 5.2),
  ('O=C(/C=C/c1ccc(O)c(O)c1)O[C@H]1[C@H](O)C[C@](O)(C(=O)O)C[C@H]1O [Cryptochlorogenic acid]', 5.2),
  ('O=C(/C=C/c1ccc(O)c(O)c1)O[C@@H]1C[C@](O)(C(=O)O)C[C@@H](O)[C@H]1O [Chlorogenic acid]', 5.2),
  ('COc1ccc(-c2cc(=O)c3c(O)cc(O)cc3o2)cc1 [Acacetin]', 4.5);

* * *

Assay: Stability of analytes in rat plasma (QC samples under four storage conditions)
Format: in vitro ADME
Settings: spiked concentration 1000 ng/mL, n = 6
readoutKind: Measured concentration, Autosampler for 12 h (ng/mL)

INSERT INTO assay_data (compound, valueobserved) VALUES
  ('COc1ccc(-c2cc(=O)c3c(O)cc(O)cc3o2)cc1', 1030.3),
  ('O=c1cc(-c2ccc(O)cc2)oc2cc(O)cc(O)c12', 987.0),
  ('O=c1c(O[C@@H]2O[C@H](CO)[C@H](O)[C@H](O)[C@H]2O)c(-c2ccc(O)c(O)c2)oc2cc(O)cc(O)c12 [Hyperoside]', 803.4),
  ('O=C(/C=C/c1ccc(O)c(O)c1)O[C@@H]1[C@H](O)C[C@@](O)(C(=O)O)C[C@H]1OC(=O)/C=C/c1ccc(O)c(O)c1', 1047.3);

* * *

Assay: Stability of analytes in rat plasma (QC samples under four storage conditions)
Type: in vitro ADME
Details: spiked concentration 200 ng/mL, n = 6
readoutKind: Measured concentration, Room temperature for 6 h (ng/mL)

INSERT INTO assay_data (molecule, readoutunits, valueobserved) VALUES
  ('COc1ccc(-c2cc(=O)c3c(O)cc(O[C@@H]4O[C@H](CO)[C@@H](O)[C@H](O)[C@H]4O)cc3o2)cc1 [Tilianin]', 'ng/mL', 226.4),
  ('O=c1cc(-c2ccc(O)c(O)c2)oc2cc(O)cc(O)c12 [Luteolin]', 'ng/mL', 193.5),
  ('O=c1cc(-c2ccc(O)c(O)c2)oc2cc(O[C@@H]3O[C@H](CO)[C@@H](O)[C@H](O)[C@H]3O)cc(O)c12 [Cynaroside]', 'ng/mL', 182.4),
  ('COc1ccc([C@@H]2CC(=O)c3c(O)cc(O[C@@H]4O[C@H](CO[C@@H]5O[C@@H](C)[C@H](O)[C@@H](O)[C@H]5O)[C@@H](O)[C@H](O)[C@H]4O)cc3O2)cc1O [Hesperidin]', 'ng/mL', 213.7);

* * *

Assay: Stability of analytes in rat plasma (QC samples under four storage conditions)
Assay type: in vitro ADME
Details: spiked concentration 5 ng/mL, n = 6
readoutKind: Measured concentration, Room temperature for 6 h (ng/mL)

INSERT INTO results (molecule, valueobserved) VALUES
  ('O=c1c(O[C@@H]2O[C@H](CO)[C@H](O)[C@H](O)[C@H]2O)c(-c2ccc(O)c(O)c2)oc2cc(O)cc(O)c12 [Hyperoside]', 4.4),
  ('O=C(/C=C/c1ccc(O)c(O)c1)O[C@@H]1[C@H](O)C[C@@](O)(C(=O)O)C[C@H]1OC(=O)/C=C/c1ccc(O)c(O)c1 [Isochlorogenic acid C]', 5.2),
  ('O=c1cc(-c2ccc(O)cc2)oc2cc(O[C@@H]3O[C@H](CO)[C@@H](O)[C@H](O)[C@H]3O)cc(O)c12 [Apigenin 7-glucoside]', 5.9),
  ('O=C(/C=C/c1ccc(O)c(O)c1)O[C@@H]1C[C@](O)(C(=O)O)C[C@@H](O)[C@H]1O [Chlorogenic acid]', 5.8),
  ('O=C(/C=C/c1ccc(O)c(O)c1)O[C@H]1[C@H](O)C[C@](O)(C(=O)O)C[C@H]1O [Cryptochlorogenic acid]', 5.3),
  ('O=c1cc(-c2ccc(O)cc2)oc2cc(O)cc(O)c12 [Apigenin]', 4.9),
  ('COc1ccc(-c2cc(=O)c3c(O)cc(O)cc3o2)cc1 [Acacetin]', 4.6);

* * *

Assay: Pharmacokinetic study in rat plasma after oral administration of Flos Chrysanthemi extract (UPLC-MS/MS)
Type: in vivo, Sprague-Dawley rats
Settings: male, Sprague-Dawley, rat; rats, oral Flos Chrysanthemi extract 10 g/kg, plasma, n = 6
Protocol: Six male Sprague-Dawley rats (250 ± 5 g) were purchased from Huafukang Bioscience Co., Inc. (Beijing, China). The rats were adapted to the facility for a week. Before the experiments, rats were fasted for 12 h, although drinking water was readily accessible. Flos Chrysanthemi extract was dissolved in CMC-Na aqueous solution and orally administered to the animals once at 10 g/kg. […] Plasma samples from rats orally administered with Flos Chrysanthemi extract (10.0 g/kg) were analysed with UPLC-MS/MS. […]
readoutKind: half-life (h)

(P) O=c1cc(-c2ccc(O)cc2)oc2cc(O[C@@H]3O[C@H](CO)[C@@H](O)[C@H](O)[C@H]3O)cc(O)c12 [Apigenin 7-glucoside]
(Q) O=C(O)[C@H]1O[C@@H](Oc2cc(O)c3c(=O)cc(-c4ccc(O)c(O)c4)oc3c2)[C@H](O)[C@@H](O)[C@@H]1O [Luteolin 7-O-glucuronide]
(R) O=C(/C=C/c1ccc(O)c(O)c1)O[C@@H]1C[C@](O)(C(=O)O)C[C@@H](O)[C@H]1O [Chlorogenic acid]
(S) O=c1cc(-c2ccc(O)c(O)c2)oc2cc(O)cc(O)c12 [Luteolin]
Request: Order each entry by recorded half-life, climbing from the minimum. Response format: the labels, sorted as the prompt asks.
Response: R, Q, S, P
